Where these numbers come from: BigSolDB 2.1

- CONDITION SET: in ethanol, 318.15 K
ENDPOINT: solubility (mole fraction)

>>> experimental_result("C[C@H]1[C@H](OC(=O)CCC(=O)O)O[C@@H]2O[C@@]3(C)CC[C@H]4[C@H](C)CC[C@@H]1[C@@]24OO3")
0.0111

---

- CONDITION SET: in methanol, 318.15 K
ENDPOINT: solubility (mole fraction)

>>> experimental_result("C[C@H]1[C@H](OC(=O)CCC(=O)O)O[C@@H]2O[C@@]3(C)CC[C@H]4[C@H](C)CC[C@@H]1[C@@]24OO3")
0.0108

---

- CONDITION SET: in isopropanol, 308.15 K
ENDPOINT: solubility (mole fraction)

>>> experimental_result("C[C@H]1[C@H](OC(=O)CCC(=O)O)O[C@@H]2O[C@@]3(C)CC[C@H]4[C@H](C)CC[C@@H]1[C@@]24OO3")
0.00698

---

- CONDITION SET: in isopropanol, 303.15 K
ENDPOINT: solubility (mole fraction)

>>> experimental_result("C[C@H]1[C@H](OC(=O)CCC(=O)O)O[C@@H]2O[C@@]3(C)CC[C@H]4[C@H](C)CC[C@@H]1[C@@]24OO3")
0.00609

---

- CONDITION SET: in propylene glycol, 308.15 K
ENDPOINT: solubility (mole fraction)

>>> experimental_result("C[C@H]1[C@H](OC(=O)CCC(=O)O)O[C@@H]2O[C@@]3(C)CC[C@H]4[C@H](C)CC[C@@H]1[C@@]24OO3")
0.00279

---

- CONDITION SET: in propylene glycol, 288.15 K
ENDPOINT: solubility (mole fraction)

>>> experimental_result("C[C@H]1[C@H](OC(=O)CCC(=O)O)O[C@@H]2O[C@@]3(C)CC[C@H]4[C@H](C)CC[C@@H]1[C@@]24OO3")
0.00148

---

- CONDITION SET: in isopropanol, 278.15 K
ENDPOINT: solubility (mole fraction)

>>> experimental_result("C[C@H]1[C@H](OC(=O)CCC(=O)O)O[C@@H]2O[C@@]3(C)CC[C@H]4[C@H](C)CC[C@@H]1[C@@]24OO3")
0.00285

---

- CONDITION SET: in propylene glycol, 318.15 K
ENDPOINT: solubility (mole fraction)

>>> experimental_result("C[C@H]1[C@H](OC(=O)CCC(=O)O)O[C@@H]2O[C@@]3(C)CC[C@H]4[C@H](C)CC[C@@H]1[C@@]24OO3")
0.00366

---

- CONDITION SET: in methanol, 303.15 K
ENDPOINT: solubility (mole fraction)

>>> experimental_result("C[C@H]1[C@H](OC(=O)CCC(=O)O)O[C@@H]2O[C@@]3(C)CC[C@H]4[C@H](C)CC[C@@H]1[C@@]24OO3")
0.00817

---

- CONDITION SET: in propylene glycol, 283.15 K
ENDPOINT: solubility (mole fraction)

>>> experimental_result("C[C@H]1[C@H](OC(=O)CCC(=O)O)O[C@@H]2O[C@@]3(C)CC[C@H]4[C@H](C)CC[C@@H]1[C@@]24OO3")
0.00123

---

- CONDITION SET: in ethanol, 293.15 K
ENDPOINT: solubility (mole fraction)

>>> experimental_result("C[C@H]1[C@H](OC(=O)CCC(=O)O)O[C@@H]2O[C@@]3(C)CC[C@H]4[C@H](C)CC[C@@H]1[C@@]24OO3")
0.00709

---

- CONDITION SET: in ethanol, 288.15 K
ENDPOINT: solubility (mole fraction)

>>> experimental_result("C[C@H]1[C@H](OC(=O)CCC(=O)O)O[C@@H]2O[C@@]3(C)CC[C@H]4[C@H](C)CC[C@@H]1[C@@]24OO3")
0.00636

---

- CONDITION SET: in methanol, 278.15 K
ENDPOINT: solubility (mole fraction)

>>> experimental_result("C[C@H]1[C@H](OC(=O)CCC(=O)O)O[C@@H]2O[C@@]3(C)CC[C@H]4[C@H](C)CC[C@@H]1[C@@]24OO3")
0.00497

---

- CONDITION SET: in methanol, 313.15 K
ENDPOINT: solubility (mole fraction)

>>> experimental_result("C[C@H]1[C@H](OC(=O)CCC(=O)O)O[C@@H]2O[C@@]3(C)CC[C@H]4[C@H](C)CC[C@@H]1[C@@]24OO3")
0.00994

---

- CONDITION SET: in isopropanol, 318.15 K
ENDPOINT: solubility (mole fraction)

>>> experimental_result("C[C@H]1[C@H](OC(=O)CCC(=O)O)O[C@@H]2O[C@@]3(C)CC[C@H]4[C@H](C)CC[C@@H]1[C@@]24OO3")
0.00898

---

- CONDITION SET: in water, 288.15 K
ENDPOINT: solubility (mole fraction)

>>> experimental_result("C[C@H]1[C@H](OC(=O)CCC(=O)O)O[C@@H]2O[C@@]3(C)CC[C@H]4[C@H](C)CC[C@@H]1[C@@]24OO3")
"1.66e-05"

---

- CONDITION SET: in isopropanol, 293.15 K
ENDPOINT: solubility (mole fraction)

>>> experimental_result("C[C@H]1[C@H](OC(=O)CCC(=O)O)O[C@@H]2O[C@@]3(C)CC[C@H]4[C@H](C)CC[C@@H]1[C@@]24OO3")
0.00461

---

- CONDITION SET: in methanol, 293.15 K
ENDPOINT: solubility (mole fraction)

>>> experimental_result("C[C@H]1[C@H](OC(=O)CCC(=O)O)O[C@@H]2O[C@@]3(C)CC[C@H]4[C@H](C)CC[C@@H]1[C@@]24OO3")
0.00677

---

- CONDITION SET: in isopropanol, 283.15 K
ENDPOINT: solubility (mole fraction)

>>> experimental_result("C[C@H]1[C@H](OC(=O)CCC(=O)O)O[C@@H]2O[C@@]3(C)CC[C@H]4[C@H](C)CC[C@@H]1[C@@]24OO3")
0.00336

---

- CONDITION SET: in ethanol, 308.15 K
ENDPOINT: solubility (mole fraction)

>>> experimental_result("C[C@H]1[C@H](OC(=O)CCC(=O)O)O[C@@H]2O[C@@]3(C)CC[C@H]4[C@H](C)CC[C@@H]1[C@@]24OO3")
0.00939

---

- CONDITION SET: in isopropanol, 298.15 K
ENDPOINT: solubility (mole fraction)

>>> experimental_result("C[C@H]1[C@H](OC(=O)CCC(=O)O)O[C@@H]2O[C@@]3(C)CC[C@H]4[C@H](C)CC[C@@H]1[C@@]24OO3")
0.00527

---

- CONDITION SET: in ethanol, 283.15 K
ENDPOINT: solubility (mole fraction)

>>> experimental_result("C[C@H]1[C@H](OC(=O)CCC(=O)O)O[C@@H]2O[C@@]3(C)CC[C@H]4[C@H](C)CC[C@@H]1[C@@]24OO3")
0.00575

---

- CONDITION SET: in water, 308.15 K
ENDPOINT: solubility (mole fraction)

>>> experimental_result("C[C@H]1[C@H](OC(=O)CCC(=O)O)O[C@@H]2O[C@@]3(C)CC[C@H]4[C@H](C)CC[C@@H]1[C@@]24OO3")
"4.44e-05"

---

- CONDITION SET: in methanol, 283.15 K
ENDPOINT: solubility (mole fraction)

>>> experimental_result("C[C@H]1[C@H](OC(=O)CCC(=O)O)O[C@@H]2O[C@@]3(C)CC[C@H]4[C@H](C)CC[C@@H]1[C@@]24OO3")
0.00538

---

- CONDITION SET: in methanol, 308.15 K
ENDPOINT: solubility (mole fraction)

>>> experimental_result("C[C@H]1[C@H](OC(=O)CCC(=O)O)O[C@@H]2O[C@@]3(C)CC[C@H]4[C@H](C)CC[C@@H]1[C@@]24OO3")
0.00906

---

- CONDITION SET: in ethanol, 278.15 K
ENDPOINT: solubility (mole fraction)

>>> experimental_result("C[C@H]1[C@H](OC(=O)CCC(=O)O)O[C@@H]2O[C@@]3(C)CC[C@H]4[C@H](C)CC[C@@H]1[C@@]24OO3")
0.00528

---

- CONDITION SET: in ethanol, 298.15 K
ENDPOINT: solubility (mole fraction)

>>> experimental_result("C[C@H]1[C@H](OC(=O)CCC(=O)O)O[C@@H]2O[C@@]3(C)CC[C@H]4[C@H](C)CC[C@@H]1[C@@]24OO3")
0.00782
